- assay_target: T1, EGF32 NRR (cyno) (cynomolgus monkey)
- T1 construct: recombinant, C-terminal six histidine tag
- experiment_notes: Biacore (SPR); set-up not stated on the sheet
observed_property: pKd
Numbers only, as −log10 of the molar value.

binder	pKd
20350 (antibody, human IgG1, kappa, V domains shown) VH: QVQLVQSGAEVKKPGSSVKVSCKASGGTFSSYTISWVRQAPGQGLEWMGWIKPRWGAAHYAQKFQGRVTITADESTSTAYMELSSLRSEDTAVYYCARGSFWFGYWGQGTLVTVSS VL: DIQMTQSPSSLSASVGDRVTITCRASQGINNYLNWYQQKPGKAPKLLIYDASKLQSGVPSRFSGSGSGTDFTLTISSLQPEDFATYYCQQYLQYPMTFGQGTKVEIKR	9.52

Shifting focus to the binder that follows.
Q. Check the records and state pKd for 12981 (antibody, human IgG1, kappa, V domains shown, also called MOR 12981) VH: QVQLVQSGAEVKKPGSSVKVSCKASGGTFRTYAMHWVRQAPGQGLEWMGGIIPIFGIANYAQKFQGRVTITADESTSTAYMELSSLRSEDTAVYYCARDDYSTYAFAYWGQGTLVTVSS VL: DIQMTQSPSSLSASVGDRVTITCRASQSIASYLAWYQQKPGKAPKLLIYDASNLQSGVPSRFSGSGSGTDFTLTISSLQPEDFATYYCQQAYKTPYTFGQGTKVEIKR
A. 7.72
